Ref: patent US8481546B2

# Experiment: Pharmacokinetics in the rabbit after IV and IN administration
# Format: in vivo, New Zealand White rabbits
# Experimental Parameters: male, New Zealand White, plasma, inhaled or intranasal, IN, all doses studied, read-out: time to reach peak concentrations (Tmax)
Endpoint: Tmax

Input Cc1cc(C[C@@H](NC(=O)N2CCC(c3cc4ccccc4[nH]c3=O)CC2)C(=O)N2CCN(C3CCN(C)CC3)CC2)cc2cn[nH]c12 [Compound I] , output reported Tmax.
12 to 18 min

----------
# Experiment: One-week comparative intranasal irritation study in rats: toxicokinetics
# Experimental Parameters: male, rat, in vivo, inhaled or intranasal, 15 mg, intranasal 15 mg (1.07 mg/cm^2) once daily, Day 6
Endpoint: Tmax (min)
Express your answer in min, writing the number without its unit.

Input Cc1cc(C[C@@H](NC(=O)N2CCC(c3cc4ccccc4[nH]c3=O)CC2)C(=O)N2CCN(C3CCN(C)CC3)CC2)cc2cn[nH]c12 [Compound I] , output reported Tmax.
30

----------
# Experiment: One-week comparative intranasal irritation study in rats: toxicokinetics
# Experimental Parameters: male, rat, in vivo, other: intranasal instillation, 5 mg, intranasal 5 mg (0.357 mg/cm^2) once daily, Day 6, read-out: Mean C24 h
Endpoint: concentration at 24 h (nM)
Express your answer in nM, writing the number without its unit.

Input Cc1cc(C[C@@H](NC(=O)N2CCC(c3cc4ccccc4[nH]c3=O)CC2)C(=O)N2CCN(C3CCN(C)CC3)CC2)cc2cn[nH]c12 , output reported concentration at 24 h.
15

----------
# Experiment: One-week comparative intranasal irritation study in rats: toxicokinetics
# Experimental Parameters: male, rat, in vivo, inhaled or intranasal, 15 mg, intranasal 15 mg (1.07 mg/cm^2) once daily, Day 0, read-out: Composite AUC0-24 h
Endpoint: AUC(0-t) (µM·h)
Express your answer in µM·h, writing the number without its unit.

Input Cc1cc(C[C@@H](NC(=O)N2CCC(c3cc4ccccc4[nH]c3=O)CC2)C(=O)N2CCN(C3CCN(C)CC3)CC2)cc2cn[nH]c12 [Compound I] , output reported AUC(0-t).
4.6

----------
# Experiment: Pharmacokinetics in the rabbit after IV and IN administration
# Type: in vivo, New Zealand White rabbits
# Experimental Parameters: male, New Zealand White, plasma, iv, 0.5 mg/kg, IV 0.5 mg/kg, n = 3, Mean ± SD
Endpoint: Cmax (µM)
Express your answer in µM, writing the number without its unit.

Input Cc1cc(C[C@@H](NC(=O)N2CCC(c3cc4ccccc4[nH]c3=O)CC2)C(=O)N2CCN(C3CCN(C)CC3)CC2)cc2cn[nH]c12 [Compound I] , output reported Cmax.
13.7

----------
# Experiment: One-week comparative intranasal irritation study in rats: toxicokinetics
# Experimental Parameters: male, rat, in vivo, inhaled or intranasal, 5 mg, intranasal 5 mg (0.357 mg/cm^2) once daily, Day 6, read-out: Composite AUC0-24 h
# Method: This study was conducted to compare potential nasal irritation of Compound I to Compound III when given intranasally to male rats for 1 week. […] Parameters evaluated included clinical observations, body weight, food consumption, toxicokinetics, and histological evaluation of nasal tissues.
Endpoint: AUC(0-t) (µM·h)
Express your answer in µM·h, writing the number without its unit.

Input Cc1cc(C[C@@H](NC(=O)N2CCC(c3cc4ccccc4[nH]c3=O)CC2)C(=O)N2CCN(C3CCN(C)CC3)CC2)cc2cn[nH]c12 [Compound I] , output reported AUC(0-t).
2.6

----------
# Experiment: One-week comparative intranasal irritation study in rats: toxicokinetics
# Experimental Parameters: male, rat, in vivo, inhaled or intranasal, 15 mg, intranasal 15 mg (1.07 mg/cm^2) once daily, Day 6, read-out: Composite AUC0-24 h
# Description: This study was conducted to compare potential nasal irritation of Compound I to Compound III when given intranasally to male rats for 1 week. […] Parameters evaluated included clinical observations, body weight, food consumption, toxicokinetics, and histological evaluation of nasal tissues.
Endpoint: AUC(0-t) (µM·h)
Express your answer in µM·h, writing the number without its unit.

Input Cc1cc(C[C@@H](NC(=O)N2CCC(c3cc4ccccc4[nH]c3=O)CC2)C(=O)N2CCN(C3CCN(C)CC3)CC2)cc2cn[nH]c12 , output reported AUC(0-t).
5.2
